# TARGET OR SYSTEM: Cellular tumor antigen p53 (Homo sapiens) (UniProt P04637)
# Sequence (P04637 whole entry, looked up): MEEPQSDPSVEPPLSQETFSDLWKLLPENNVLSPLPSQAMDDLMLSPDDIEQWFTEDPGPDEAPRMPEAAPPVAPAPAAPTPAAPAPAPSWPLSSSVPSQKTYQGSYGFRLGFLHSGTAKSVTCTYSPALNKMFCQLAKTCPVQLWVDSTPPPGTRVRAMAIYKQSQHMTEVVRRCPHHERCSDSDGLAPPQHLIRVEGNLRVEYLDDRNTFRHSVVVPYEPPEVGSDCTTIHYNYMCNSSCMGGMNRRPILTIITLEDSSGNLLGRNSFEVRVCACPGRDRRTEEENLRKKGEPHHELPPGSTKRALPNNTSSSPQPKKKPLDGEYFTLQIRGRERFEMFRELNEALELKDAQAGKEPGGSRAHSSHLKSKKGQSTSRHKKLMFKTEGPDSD
# PROCEDURE DETAILS: TOX21_p53_BLA_p2_ratio: Tox21 HCT-116 p53 Agonism Beta-lactamase Assay, Ratio, Phase 2 (AID 2283592)
Inconclusive results are not listed. Activity calls are given as the source filed them. The calls were made as follows: active = hit-call score of the fitted dose curve at least 0.9, where 1 is the maximum; inconclusive = response in the unintended direction; inactive = score below 0.9.
Reply using exactly one outcome from T (active), F (inactive)

Reference set (5 entries):
MOLECULE	LABEL VALUE
CN1CCCN=C1COC(=O)C(O)(c1ccccc1)C1CCCCC1 (centres undefined)	F
O=C1N(c2ccccc2)c2ccccc2C1(Cc1ccncc1)Cc1ccncc1	F
CCCCCCCCCCCCCCCCCCOP(=O)([O-])OC1CC[N+](C)(C)CC1	F
C[N+](C)(C)CCOC(N)=O	F
CC(=O)OC1CCC(C(C)(C)C)CC1 (centres undefined)	F

Query: Check the results log: what was the call for CCCCN1CCCC1C(=O)Nc1c(C)cc(C)cc1C (centres undefined) ?
Result: F

Query: # fetch the recorded call for `C[C@@H]1C[C@H]2[C@@H]3C[C@H](F)C4=CC(=O)C=C[C@]4(C)[C@@]3(Cl)[C@@H](O)C[C@]2(C)[C@H]1C(=O)COC(=O)C(C)(C)C` here
Result: F

Query: Field: outcome | Entry: `CCC(=O)O[C@]1(C(=O)SCF)[C@H](C)C[C@H]2[C@@H]3C[C@H](F)C4=CC(=O)C=C[C@]4(C)[C@@]3(F)[C@@H](O)C[C@@]21C`
Result: F

Query: Outcome? `O=C1c2c(O)cccc2[C@H]([C@@H]2O[C@H](CO)[C@@H](O)[C@H](O)[C@H]2O)c2cc(CO)cc(O)c21`
Result: F

Query: # lookup: test call for `O=C1c2ccccc2C(=O)N1CCl`
Result: F

Query: What call does the record list for `CCOC(=O)c1cnc2c(cnn2CC)c1NN=C(C)C` ?
Result: F

Query: Any idea what this test logged for `CCSC(=O)N(CC)CC` ?
Result: F

Query: Hi team, can someone confirm the assay call for `CN1CCC(=C2c3ccccc3C=Cc3ccccc32)CC1` ?
Result: T

Query: Would you mind telling me which call this test gave `CC(=O)N/N=C/c1ccc([N+](=O)[O-])o1` ?
Result: T

Query: // param item: `CC(C)CN(C[C@@H](O)[C@H](Cc1ccccc1)NC(=O)O[C@@H]1CCOC1)S(=O)(=O)c1ccc(N)cc1` ; yields the recorded call
Result: F

Query: Recorded test outcome, item CC[N+](CC)(CC)CCC(O)(c1ccccc1)C1CCCCC1 (centres undefined)
Result: F

Query: Assay result, entry `COc1cc(C(=O)N2CCOCC2)cc(OC)c1OC` — outcome?
Result: F

Query: Each molecule tested received a call. Report the one for `CNC(=O)OCc1cccc(COC(=O)NC)n1` .
Result: F

Query: Name the outcome recorded for `CN(C/C=C/C#CC(C)(C)C)Cc1cccc2ccccc12` in the assay.
Result: F

Query: Each molecule tested received a call. Report the one for `CC(=O)Nc1ccccc1C` .
Result: F

Query: Per the assay record, what outcome was assigned to `Cc1cccc(C)c1Nc1ncccc1C(=O)O` ?
Result: T

Query: Identify the outcome logged in this assay for the molecule shown: `C#CCN(C)CCCOc1ccc(Cl)cc1Cl`
Result: F

Query: Recorded call for `CO/N=C(\C(=O)N[C@@H]1C(=O)N2C(C(=O)O)=C(CSC(=O)c3ccco3)CS[C@H]12)c1csc(N)n1` ?
Result: F

Query: Given `COc1cc2c(cc1OC)CC(=O)N(CCCN(C)C[C@H]1Cc3cc(OC)c(OC)cc31)CC2` , state the outcome it received in this test.
Result: F

Query: Just curious, what result did `O=C(O)c1nc(=O)[nH]c(=O)[nH]1` get here?
Result: F

Query: Hi, do you know how `c1ccc2c(CC3=NCCN3)cccc2c1` came out in this test?
Result: F
